biological target: T1, hSIRPαV2D1 with histidine tag (human); assay: SPR (Biacore 3000), IgG captured on anti-human IgG, His-tagged D1 analyte
T1 construct: analyte of the Biacore experiments; also called first immunoglobulin-like domain of human SIRPα variant V2; not shown: histidine tag
T1 sequence (chain, as listed by the source limits assumed): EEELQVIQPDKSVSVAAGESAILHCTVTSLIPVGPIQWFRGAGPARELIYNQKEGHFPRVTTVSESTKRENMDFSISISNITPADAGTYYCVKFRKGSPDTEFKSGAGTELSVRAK
quantity-measured: Kd (nM)
Answers are plain numbers, in nM.

Guide cases for Kd, answers given:
binder: Ab9_G4 (antibody, human IgG4 S228P, kappa, V domains shown, human IgG4 format) VH: EVQLVESGGGLVKPGGSLRLSCAASGFTFSSYVMSWVRQTPGKGLEWVATISSGGTYTYYPNSVKGRFTLSRDNAKNSLYLQMNSLRAEDTAVYYCVSSMTGSSFDYWGQGTTVTVSS VL: DIVITQSPASLAVSLGERATISCRASESVDSYGNSFMHWYQQKPGQPPKLLIYRASNLESGVPDRFSGSGSRTDFTLTINPLQAEDVATYYCHQSSEQLPWTFGGGTKVEIKR
quantity-measured: Kd
result-unit: nM
value: 2.97

binder: Ab1_G4 (antibody, human IgG4 S228P, kappa, V domains shown, human IgG4 format, kappa light chain, made in EXPICHO cells) VH: EVQLVESGGGLVKPGGSLRLSCAASGFTFSSYVMSWVRQTPGKGLEWVATISSGGTYTYYPSSVKGRFTLSRDNAKNSLYLQMNSLRAEDTAVYYCASSLTGSSFDYWGQGTTVTVSS VL: DIVLTQSPASLAVSLGERATISCRASESVDLYGTSFMHWYQQKPGQPPKLLIYRASNLESGVPDRFSGSGSRTDFTLTINPLQAEDVATYYCHQSSDELPWTFGGGTKVEIKR
quantity-measured: Kd
result-unit: nM
value: 3.12

Find the recorded Kd belonging to Ab11_G2 (antibody, human IgG2, V domains shown, same antibody as Ab11_G4 except human IgG2 CH1, hinge, CH2 and CH3) VH: EVQLVESGGGLVKPGGSLRLSCAASGFTFSSYVMSWVRQTPGKGLEWVATISSGGTYTYYPDSVKGRFTLSRDNAKNSLYLQMNSLRAEDTAVYYCASQLTGSEFDYWGQGTTVTVSS VL: DIVITQSPASLAVSLGERATISCRASESVDSYGNSFMHWYQQKPGQPPKLLIYRASNLESGVPDRFSGSGSRTDFTLTINPLQAEDVATYYCHQSGDLPWTFGGGTKVEIKR and report it.
1.92
